Biological target: T1, ROR1 extracellular segment with Kringle domain removed on CHO cells (human, UniProt Q01973 30-472, limits assumed)
T1 construct: Transfected into CHO cells; also called CHO-ROR1 (with Kringle domain removed)
T1 sequence (Q01973 other isoform, or with tags, fused parts or gaps limits assumed): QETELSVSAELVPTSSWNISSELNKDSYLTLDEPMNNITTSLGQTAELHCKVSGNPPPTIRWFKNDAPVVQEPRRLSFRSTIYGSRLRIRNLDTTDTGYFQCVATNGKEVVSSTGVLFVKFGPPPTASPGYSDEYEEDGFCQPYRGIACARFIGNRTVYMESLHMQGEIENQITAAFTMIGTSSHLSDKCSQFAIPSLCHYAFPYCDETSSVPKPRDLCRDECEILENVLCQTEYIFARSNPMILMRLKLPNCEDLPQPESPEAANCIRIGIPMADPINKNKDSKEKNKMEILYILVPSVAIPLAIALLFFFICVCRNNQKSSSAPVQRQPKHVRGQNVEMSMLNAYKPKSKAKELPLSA
Assay: FACS, CHO-ROR1 (with Kringle domain removed) cells
result.type: pEC50
Conceptually, pEC50 converts a concentration in mol/L into minus its log10.

State the recorded pEC50 for this entry: UC-961 (antibody, V domains shown, Control antibody of US20150232569A1, made with human IgG1 heavy chain constant region and Kappa chain constant region) VH: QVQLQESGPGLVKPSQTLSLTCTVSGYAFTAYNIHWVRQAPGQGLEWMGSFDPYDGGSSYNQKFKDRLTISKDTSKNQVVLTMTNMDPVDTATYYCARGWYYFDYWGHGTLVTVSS VL: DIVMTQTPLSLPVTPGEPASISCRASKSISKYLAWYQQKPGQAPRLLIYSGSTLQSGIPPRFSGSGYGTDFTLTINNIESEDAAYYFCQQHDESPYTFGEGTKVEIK
9.10
